Molecular target: HCV NS3 protease domain (Hepatitis C virus genotype 1b, UniProt Q9WMX2)
Construct: The first 181 amino acids of NS3 (residues 1027-1207 of the viral polyprotein); hexa-histidine (C); made in house; host or cells: E. coli BL21/DE3 pLysS
Experiment: biochemical
Conditions: Enzyme Assay 1 (HCV NS3 Protease Domain Peptide Cleavage Assay) activity, apparent Ki class
pKi: −log10 of the molar value.
property.label: pKi

{"molecule": "CCC[C@H](NC(=O)[C@@H]1C[C@]2(CC(c3cccc(F)c3)=NO2)CN1C(=O)[C@@H](NC(=O)O[C@H]1CCOC1)C(C)(C)C)C(=O)C(=O)NC1CC1 [Compound 24]", "subject.of.test": "HCV NS3 protease domain (Hepatitis C virus genotype 1b, UniProt Q9WMX2)", "measured": "6.30 to 7.00"}
{"molecule": "CCC[C@H](NC(=O)[C@@H]1C[C@]2(CC(c3cccc(Cl)c3)=NO2)CN1C(=O)c1ccc(Cl)cc1Nc1ccc(OC)nc1)C(=O)C(=O)NC1CC1 [Compound 248]", "subject.of.test": "HCV NS3 protease domain (Hepatitis C virus genotype 1b, UniProt Q9WMX2)", "measured": "< 6.30"}
{"molecule": "CCC[C@H](NC(=O)[C@@H]1C[C@]2(CC(c3cccc(Cl)c3)=NO2)CN1C(=O)[C@@H](NC(=O)CC1CCCCC1)C(C)(C)C)C(=O)C(=O)NC(C)Cc1c[nH]c2ccc(C(C)=O)cc12 (some centres unmarked) [Compound 138]", "subject.of.test": "HCV NS3 protease domain (Hepatitis C virus genotype 1b, UniProt Q9WMX2)", "measured": "< 6.30"}
{"molecule": "C=C[C@@H]1C[C@]1(NC(=O)[C@@H]1C[C@]2(CC(c3cccc(Cl)c3)=NO2)CN1C(=O)[C@@H](NC(=O)CC1CCOCC1)C(C)(C)C)C(=O)NS(=O)(=O)C1CC1 [Compound 359]", "subject.of.test": "HCV NS3 protease domain (Hepatitis C virus genotype 1b, UniProt Q9WMX2)", "measured": "6.30 to 7.00"}

# per-item lookup of pKi; items listed below
1. CCC[C@H](NC(=O)[C@@H]1C[C@]2(CC(c3ccc(OC)cc3)=NO2)CN1C(=O)[C@@H](NC(=O)CC1CCOCC1)C(C)(C)C)C(=O)C(=O)NC1CC1 [Compound 16]
2. CCC[C@H](NC(=O)[C@@H]1C[C@]2(CC(c3cc(Cl)c4c(c3)OCO4)=NO2)CN1C(=O)[C@@H](NC(=O)CC1CCCCC1)C(C)(C)C)C(=O)C(=O)NC1CC1 [Compound 370]
3. CCC[C@H](NC(=O)[C@@H]1C[C@]2(CC(c3cccc(Cl)c3)=NO2)CN1C(=O)[C@@H](NC(=O)NCc1cccc(F)c1)C(C)(C)C)C(=O)C(=O)NC1CC1 [Compound 122]
4. CCC[C@H](NC(=O)[C@@H]1C[C@]2(CC(c3cccc(Cl)c3)=NO2)CN1C(=O)[C@@H](NC(=O)OCCF)C(C)(C)C)C(=O)C(=O)NC1CC1 [Compound 85]
5. CCC[C@H](NC(=O)[C@@H]1C[C@]2(CC(c3ccccc3)=NO2)CN1C(=O)[C@@H](NC(=O)Cc1cccnc1)C(C)(C)C)C(=O)C(=O)NC1CC1 [Compound 283]
6. CCC[C@H](NC(=O)[C@@H]1C[C@]2(CC(c3cccc(Cl)c3)=NO2)CN1C(=O)[C@@H](NC(=O)CC1CCCCC1)C(C)(C)C)C(=O)C(=O)NCc1nc2ccccc2s1 [Compound 17]
7. CCC[C@H](NC(=O)[C@@H]1C[C@]2(CC(c3ccc(F)c(C(F)(F)F)c3)=NO2)CN1C(=O)O[C@H]1CCOC1)C(=O)C(=O)NC1CC1 [Compound 451]

1: < 6.30; 2: 6.30 to 7.00; 3: 6.30 to 7.00; 4: 6.30 to 7.00; 5: < 6.30; 6: < 6.30; 7: < 6.30

---

Target: full-length hepatitis C viral protein NS3•4A (Hepatitis C virus genotype 1a, UniProt P27958)
Construct: hexa-histidine (N); made in house; host or cells: Sf9 insect cells (baculovirus, pVL1392)
Test: biochemical
Design: species or system HCV sub-type strain 1a
Details: Enzyme Assay 2 (HCV NS3 Peptide Cleavage Assay) activity, apparent Ki class
property.label: Ki

Working through the 3 compounds below one at a time, give Ki for each.
1. CCC[C@H](NC(=O)[C@@H]1C[C@]2(CC(c3ccc(F)c(Cl)c3)=NO2)CN1C(=O)[C@@H](NC(=O)CC1CCCCC1)C(C)(C)C)C(=O)C(N)=O [Compound 621]
2. CCC[C@H](NC(=O)[C@@H]1C[C@]2(CC(c3cccc(Cl)c3)=NO2)CN1C(=O)[C@@H](NC(=O)CC1CCCCC1)C(C)(C)C)C(=O)C(=O)NCc1nc2ccccc2s1 [Compound 17]
3. CCC[C@H](NC(=O)[C@@H]1C[C@]2(CC(c3cccc(Cl)c3)=NO2)CN1C(=O)[C@@H](NC(=O)CC1CCCCC1)C(C)OC)C(=O)C(=O)NC1CC1 (some centres unmarked) [Compound 124]

["< 100 nM", "100 to 500 nM", "100 to 500 nM"]

Hey, quick one: what's Ki for each of these?
1. CNC(=O)C(=O)[C@H](CC1CC1)NC(=O)[C@@H]1C[C@]2(CC(c3cccc(Cl)c3)=NO2)CN1C(=O)[C@@H](NC(=O)CC1CC2CCC1C2)C(C)(C)C (some centres unmarked) [Compound 716]
2. CCC[C@H](NC(=O)[C@@H]1C[C@@]2(CC(c3cc(Cl)c4c(c3)CCCN4C)=NO2)CN1C(=O)[C@@H](NC(=O)OC(C)(C)C)C(C)(C)C)C(=O)C(=O)NC1CC1 [Compound 600]

1: < 100 nM; 2: 100 to 500 nM

---

Provide the recorded Ki for the entries that follow.
Target: HCV NS3 protease domain (Hepatitis C virus genotype 1b, UniProt Q9WMX2)
Construct: The first 181 amino acids of NS3 (residues 1027-1207 of the viral polyprotein); hexa-histidine (C); made in house; host or cells: E. coli BL21/DE3 pLysS
Test: biochemical
Settings: Enzyme Assay 1 (HCV NS3 Protease Domain Peptide Cleavage Assay) activity, apparent Ki class

{"smiles.code": "CCC[C@H](NC(=O)[C@@H]1C[C@]2(CC(c3ccc(Cl)c(Cl)c3)=NO2)CN1C(=O)[C@@H](NC(=O)CC1CCCCC1)C(C)(C)C)C(=O)C(=O)NC1CC1", "measured": "100 to 500 nM"}
{"smiles.code": "CCC[C@H](NC(=O)[C@@H]1C[C@]2(CC(c3ccccc3)=NO2)CN1C(=O)[C@@H](NC(=O)OCc1ccccc1)C(C)(C)C)C(=O)C(=O)NC1CC1", "measured": "> 500 nM"}
{"smiles.code": "CCC[C@H](NC(=O)[C@@H]1C[C@]2(CC(c3cccc(Cl)c3)=NO2)CN1C(=O)[C@@H](NC(=O)CC1CCCCC1)C(C)(C)C)C(=O)C(=O)N1CC(C)(O)C1", "measured": "> 500 nM"}
{"smiles.code": "CCC[C@H](NC(=O)[C@@H]1C[C@]2(CC(c3cc(Cl)c(OC)cc3OC)=NO2)CN1C(=O)NCc1ccccc1)C(=O)C(=O)NC1CC1", "measured": "> 500 nM"}

Quick one: Ki of CCC[C@H](NC(=O)[C@@H]1C[C@]2(CC(c3cc(Cl)c(OC)cc3C)=NO2)CN1C(=O)[C@@H](NC(=O)CC1CCCCC1)C(C)(C)C)C(=O)C(=O)NC1CC1 ?
100 to 500 nM

---

Molecular target: HCV NS3 protease domain (Hepatitis C virus genotype 1b, UniProt Q9WMX2)
Construct: The first 181 amino acids of NS3 (residues 1027-1207 of the viral polyprotein); hexa-histidine (C); made in house; host or cells: E. coli BL21/DE3 pLysS
Assay: biochemical
Settings: Enzyme Assay 1 (HCV NS3 Protease Domain Peptide Cleavage Assay) activity, apparent Ki class
pKi: −log10 of the molar value.
What pKi was measured for each of the following?

// each listed molecule needs a value for pKi
1. CCC[C@H](NC(=O)[C@@H]1C[C@]2(CC(c3cccc(Cl)c3)=NO2)CN1C(=O)[C@H](NC(=O)CC1CCCCC1)C(C)(C)C)C(=O)C(=O)N(CC)CC [Compound 113]
2. CCCC(NC(=O)[C@@H]1C[C@]2(CC(c3ccc(OC)c(OC)c3)=NO2)CN1C(=O)[C@@H](NC(=O)O[C@H]1CCOC1)C(C)(C)C)C(=O)C(=O)NC1CC1 (some centres unmarked) [Compound 196]
3. CCC[C@H](NC(=O)[C@@H]1C[C@]2(CC(c3cccc(Cl)c3)=NO2)CN1C(=O)[C@@H](NC(=O)CC1CCCCC1)C(C)(C)C)C(=O)C(=O)N(C)CC [Compound 182]
4. CCC[C@H](NC(=O)[C@@H]1C[C@]2(CC(c3cccc(Cl)c3)=NO2)CN1C(=O)[C@@H](NC(=O)CC1CCCCC1)C(C)(C)C)C(=O)C(=O)NCC [Compound 140]
5. CCC[C@H](NC(=O)[C@@H]1C[C@]2(CC(Cc3ccccc3)=NO2)CN1C(=O)[C@@H](NC(=O)O[C@H]1CCOC1)C(C)(C)C)C(=O)C(=O)NC1CC1 [Compound 251]
6. CCC[C@H](NC(=O)[C@@H]1C[C@]2(CC(c3cccc(Cl)c3)=NO2)CN1C(=O)[C@@H](NC(=O)CC1CCCCC1)C(C)(C)C)C(=O)C(=O)N1CCC1 [Compound 79]
7. CCC[C@H](NC(=O)[C@@H]1C[C@]2(CC(c3cccc(C)c3)=NO2)CN1C(=O)[C@@H](NC(=O)O[C@H]1CCOC1)C(C)(C)C)C(=O)C(=O)NC1CC1 [Compound 444]

1. < 6.30
2. 6.30 to 7.00
3. < 6.30
4. 6.30 to 7.00
5. < 6.30
6. 6.30 to 7.00
7. 6.30 to 7.00

Below are 4 molecules. Give each one its pKi.
1. CCC[C@H](NC(=O)[C@@H]1C[C@]2(CC(c3ccc(C(C)C)cc3)=NO2)CN1C(=O)O[C@H]1CCOC1)C(=O)C(=O)NC1CC1 [Compound 405]
2. CCC[C@H](NC(=O)[C@@H]1C[C@]2(CC(c3ccc(OC)c(Cl)c3)=NO2)CN1C(=O)[C@@H](NC(=O)O[C@H]1CCOC1)C(C)(C)C)C(=O)C(=O)NC1CC1 [Compound 15]
3. CCC[C@H](NC(=O)[C@@H]1C[C@]2(CC(c3ccc(F)cc3)=NO2)CN1C(=O)[C@@H](NC(C)=O)C(C)(C)C)C(=O)C(=O)NC1CC1 [Compound 331]
4. CCC[C@H](NC(=O)[C@@H]1CC2(CC(c3cccc(Cl)c3)=NO2)CN1C(=O)[C@H](Cc1ccc(OC)cc1)NC(C)=O)C(=O)C(=O)NC1CC1 (some centres unmarked) [Compound 88]

1. < 6.30
2. 6.30 to 7.00
3. < 6.30
4. < 6.30
